TARGET_OR_TEST_SYSTEM: HiBit-WIZ fusion protein (Homo sapiens, UniProt O95785+Q96SW2)
Sequence (O95785 whole entry, the tested form may be a part): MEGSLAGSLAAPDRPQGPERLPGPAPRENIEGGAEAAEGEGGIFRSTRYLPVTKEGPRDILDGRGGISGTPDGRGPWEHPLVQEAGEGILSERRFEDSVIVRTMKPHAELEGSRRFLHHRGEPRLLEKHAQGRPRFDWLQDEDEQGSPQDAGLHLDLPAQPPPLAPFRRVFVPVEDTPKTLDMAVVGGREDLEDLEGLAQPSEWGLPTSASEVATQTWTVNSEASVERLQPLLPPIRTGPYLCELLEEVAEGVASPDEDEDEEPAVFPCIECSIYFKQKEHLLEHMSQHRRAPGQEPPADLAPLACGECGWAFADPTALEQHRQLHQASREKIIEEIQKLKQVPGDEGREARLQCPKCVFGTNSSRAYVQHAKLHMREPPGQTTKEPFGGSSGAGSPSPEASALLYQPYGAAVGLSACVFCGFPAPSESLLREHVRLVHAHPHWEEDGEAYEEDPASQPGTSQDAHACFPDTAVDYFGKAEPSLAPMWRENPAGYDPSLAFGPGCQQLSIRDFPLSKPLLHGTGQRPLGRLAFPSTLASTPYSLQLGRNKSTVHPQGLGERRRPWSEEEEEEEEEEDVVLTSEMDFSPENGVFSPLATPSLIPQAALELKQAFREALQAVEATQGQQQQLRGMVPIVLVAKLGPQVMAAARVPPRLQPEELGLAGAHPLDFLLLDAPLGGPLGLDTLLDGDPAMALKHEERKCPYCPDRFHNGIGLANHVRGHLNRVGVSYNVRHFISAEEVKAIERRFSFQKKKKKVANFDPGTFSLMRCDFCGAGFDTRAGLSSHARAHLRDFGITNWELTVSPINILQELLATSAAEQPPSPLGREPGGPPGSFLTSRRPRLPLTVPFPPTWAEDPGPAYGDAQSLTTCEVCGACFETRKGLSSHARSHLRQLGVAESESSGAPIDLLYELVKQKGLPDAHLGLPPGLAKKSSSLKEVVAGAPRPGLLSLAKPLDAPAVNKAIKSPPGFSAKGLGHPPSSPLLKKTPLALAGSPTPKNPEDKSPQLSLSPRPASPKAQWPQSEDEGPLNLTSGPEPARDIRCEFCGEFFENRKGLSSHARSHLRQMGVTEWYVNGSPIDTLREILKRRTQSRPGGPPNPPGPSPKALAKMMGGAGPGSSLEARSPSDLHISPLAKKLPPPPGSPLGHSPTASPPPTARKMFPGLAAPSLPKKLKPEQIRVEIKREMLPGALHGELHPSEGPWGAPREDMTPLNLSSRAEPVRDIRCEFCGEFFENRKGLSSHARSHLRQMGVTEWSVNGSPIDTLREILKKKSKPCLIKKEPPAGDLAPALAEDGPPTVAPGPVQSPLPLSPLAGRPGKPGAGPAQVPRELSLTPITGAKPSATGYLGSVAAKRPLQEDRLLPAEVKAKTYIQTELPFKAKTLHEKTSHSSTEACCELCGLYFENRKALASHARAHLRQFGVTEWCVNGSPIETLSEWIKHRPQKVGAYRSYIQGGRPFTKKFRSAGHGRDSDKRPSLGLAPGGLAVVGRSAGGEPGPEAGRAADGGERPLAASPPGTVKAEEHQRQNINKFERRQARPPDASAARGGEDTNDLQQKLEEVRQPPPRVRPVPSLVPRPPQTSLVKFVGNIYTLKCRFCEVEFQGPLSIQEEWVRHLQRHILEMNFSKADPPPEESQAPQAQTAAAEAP
Sequence (Q96SW2 whole entry, the tested form may be a part): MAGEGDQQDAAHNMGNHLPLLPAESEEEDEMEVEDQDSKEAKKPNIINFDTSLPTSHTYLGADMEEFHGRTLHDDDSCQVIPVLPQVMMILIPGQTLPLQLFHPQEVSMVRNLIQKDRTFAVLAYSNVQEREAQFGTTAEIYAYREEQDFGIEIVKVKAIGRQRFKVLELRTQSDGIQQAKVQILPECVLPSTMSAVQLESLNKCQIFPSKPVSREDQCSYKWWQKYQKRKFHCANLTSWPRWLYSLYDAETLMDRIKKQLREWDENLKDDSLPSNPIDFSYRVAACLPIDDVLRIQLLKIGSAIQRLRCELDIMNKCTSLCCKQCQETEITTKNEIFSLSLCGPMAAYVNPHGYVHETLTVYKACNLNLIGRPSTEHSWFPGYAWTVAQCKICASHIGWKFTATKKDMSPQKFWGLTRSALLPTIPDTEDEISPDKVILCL
Sequence (Q16531 whole entry partner, the tested form may be a part): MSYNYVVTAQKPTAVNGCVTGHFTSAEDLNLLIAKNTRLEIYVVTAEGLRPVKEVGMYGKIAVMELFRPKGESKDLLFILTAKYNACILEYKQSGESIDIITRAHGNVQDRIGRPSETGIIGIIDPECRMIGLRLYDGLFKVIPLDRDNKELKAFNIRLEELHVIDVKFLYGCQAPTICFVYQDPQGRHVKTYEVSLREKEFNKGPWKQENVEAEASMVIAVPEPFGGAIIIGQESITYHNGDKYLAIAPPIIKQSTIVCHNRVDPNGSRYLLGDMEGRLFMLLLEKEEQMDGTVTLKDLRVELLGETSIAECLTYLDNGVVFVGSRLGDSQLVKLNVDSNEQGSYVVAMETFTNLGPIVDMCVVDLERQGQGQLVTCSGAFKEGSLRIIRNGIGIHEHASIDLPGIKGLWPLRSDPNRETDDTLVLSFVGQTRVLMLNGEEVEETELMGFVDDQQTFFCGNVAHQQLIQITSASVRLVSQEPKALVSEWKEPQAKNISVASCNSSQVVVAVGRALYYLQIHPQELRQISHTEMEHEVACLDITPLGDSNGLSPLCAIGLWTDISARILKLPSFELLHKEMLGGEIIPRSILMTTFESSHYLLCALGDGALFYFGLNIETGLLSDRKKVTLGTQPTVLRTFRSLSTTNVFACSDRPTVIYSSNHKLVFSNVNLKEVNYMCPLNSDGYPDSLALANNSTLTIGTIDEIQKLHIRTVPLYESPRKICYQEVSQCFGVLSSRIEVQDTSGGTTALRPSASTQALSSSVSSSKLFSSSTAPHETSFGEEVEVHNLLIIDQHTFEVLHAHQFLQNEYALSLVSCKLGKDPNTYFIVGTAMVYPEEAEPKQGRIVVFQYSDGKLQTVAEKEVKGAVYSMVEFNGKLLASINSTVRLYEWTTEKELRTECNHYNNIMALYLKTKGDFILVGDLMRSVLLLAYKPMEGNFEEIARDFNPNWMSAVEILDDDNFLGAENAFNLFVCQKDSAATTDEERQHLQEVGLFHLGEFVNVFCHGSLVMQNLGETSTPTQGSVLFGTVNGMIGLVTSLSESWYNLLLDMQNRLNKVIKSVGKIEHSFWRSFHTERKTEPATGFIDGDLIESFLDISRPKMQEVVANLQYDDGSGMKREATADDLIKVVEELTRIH
EXPERIMENTAL_PROTOCOL: Quantification of WIZ protein levels in HiBit tag fusion protein assay (WIZ HiBit assay in 293T cells)
Assay type: cell-based
ASSAY_SETUP: HEK-293T, DMSO-normalized, curve-fitted percentage of WIZ-HiBit remaining at 25 uM; 293T cells; read-out: WIZ Amax
PROPERTY_MEASURED: remaining activity at up to 25 µM (%)

O=C1CCC(N2Cc3cc(OC[C@@H]4CCCCN4Cc4cnn(Cc5ccccc5)c4)ccc3C2=O)C(=O)N1 (stereo partly shown) [Compound I-50ck]; 16.8
O=C1CCC(N2Cc3cc(OC[C@H]4CCCCN4Cc4cccc5c4NC(=O)CO5)ccc3C2=O)C(=O)N1 (stereo partly shown); 84.7

(1) CCc1ncc(C(=O)N2CCCC[C@H]2COc2ccc3c(c2)CN(C2CCC(=O)NC2=O)C3=O)s1 (stereo partly shown) [Compound I-72jf]
(2) COC12CC(CN3CCCC[C@@H]3COc3ccc4c(c3)CN(C3CCC(=O)NC3=O)C4=O)(C1)C2 (stereo partly shown)
Of the two listed items, 1 and 2 , which carries the larger remaining activity at up to 25 µM figure? Indicate which entry you chose by stating its label.
1
(1: 65.8%, 2: 29.5%)

---

TARGET_OR_TEST_SYSTEM: HiBit-WIZ fusion protein (Homo sapiens, UniProt O95785+Q96SW2)
EXPERIMENTAL_PROTOCOL: Quantification of WIZ protein levels in HiBit tag fusion protein assay (WIZ HiBit assay in 293T cells)
Assay type: cell-based
ASSAY_SETUP: WIZ HiBit assay in 293T cells; 10-point, 5-fold dose response, highest concentration 25 μM, about 18 hours; read-out: WIZ AC50
PROPERTY_MEASURED: DC50 (µM)

(I) O=C1CCC(N2Cc3cc(OC[C@@H]4CCCCN4C(=O)c4ccc(-c5ccc(F)cc5)cn4)ccc3C2=O)C(=O)N1 (stereo partly shown) [Compound I-72fj]
(II) CCCCCc1ccc(C(=O)N2CCCC[C@H]2COc2ccc3c(c2)CN(C2CCC(=O)NC2=O)C3=O)cc1 (stereo partly shown) [Compound I-72t]
Of the two listed items, I and II , which carries the larger DC50 figure? Indicate which entry you chose by stating its label.
I

---

TARGET_OR_TEST_SYSTEM: HiBit-WIZ fusion protein (Homo sapiens, UniProt O95785+Q96SW2)
EXPERIMENTAL_PROTOCOL: Quantification of WIZ protein levels in HiBit tag fusion protein assay (WIZ HiBit assay in 293T cells)
Format: cell-based
ASSAY_SETUP: WIZ HiBit assay in 293T cells; 10-point, 5-fold dose response, highest concentration 25 μM, about 18 hours; read-out: WIZ AC50
PROPERTY_MEASURED: DC50 (nM)

CCN(CC)c1ccc(CN2CCCC[C@@H]2COc2ccc3c(c2)CN(C2CCC(=O)NC2=O)C3=O)cn1 (stereo partly shown) [Compound I-50eb]; 2

(1) Cc1nc(C)c(CN2CCCC[C@@H]2COc2ccc3c(c2)CN(C2CCC(=O)NC2=O)C3=O)s1 (stereo partly shown)
(2) O=C1CCC(N2Cc3cc(OC[C@H]4CCCCN4Cc4ccc(N5CCCC5)nc4)ccc3C2=O)C(=O)N1 (stereo partly shown) [Compound I-50es]
Of 1 and 2 , which shows the smaller DC50 value? Indicate which entry you chose by stating its label.
2
(2: 3 nM, 1: 19 nM)
